# subject-of-test: UniProt P18858
# assay-method-text: Inhibition of human DNA ligase 1
value-kind: pIC50
// field semantics: pIC50 = negative decimal log of concentration (mol/L)

Ask | Consider the molecule shown here: `N[C@H](CO)Cc1cc(I)c(Oc2ccc(O)cc2)c(I)c1` What is its recorded pIC50?
Reply | 6.00

---

Entries and their inhibition at 100 µM
# Test system: A549
# assay-method-text: Antiproliferative activity against human A549 cells at 100 uM relative to control
# Format: functional

CCOC(=O)C1=C(C)NC(=O)NC1c1cc(/C=N/NC(N)=O)c(O)c(C(C)(C)C)c1 (stereo not drawn) :: < 80%
CCOC(=O)C1=C(C)NC(=O)NC1c1cc(/C=N/NC(=S)NC)c(O)c(C(C)(C)C)c1 (stereo not drawn) :: > 80%
CCOC(=O)C1=C(C)NC(=O)NC1c1cc(/C=N/NC(=O)Nc2cccc(OC)c2)c(O)c(C(C)(C)C)c1 (stereo not drawn) :: > 80%
CCOC(=O)C1=C(C)NC(=O)NC1c1cc(C)c(O)c(/C=N/NC(N)=S)c1 (stereo not drawn) :: > 80%
CCOC(=O)C1=C(C)NC(=S)NC1c1cc(/C=N/NC(=S)Nc2ccccc2)c(O)c(C(C)(C)C)c1 (stereo not drawn) :: < 80%
CCOC(=O)C1=C(C)NC(=S)NC1c1cc(C)c(O)c(/C=N/NC(=O)Nc2ccc(Cl)cc2)c1 (stereo not drawn) :: > 80%

Ask | Consider the compound shown here: CCOC(=O)C1=C(C)NC(=O)NC1c1cc(/C=N/NC(=S)Nc2ccccc2)c(O)c(C(C)(C)C)c1 (stereo not drawn) What is its recorded inhibition at 100 µM?
Reply | > 80%

Ask | Consider the compound shown here: CCOC(=O)C1=C(C)NC(=S)NC1c1cc(/C=N/NC(=S)Nc2ccc(C)cc2)c(O)c(C(C)(C)C)c1 (stereo not drawn) What is its recorded inhibition at 100 µM?
Reply | < 80%

---

# subject-of-test: DNA ligase 1 (Homo sapiens, UniProt P18858)
# Sequence (P18858 whole entry): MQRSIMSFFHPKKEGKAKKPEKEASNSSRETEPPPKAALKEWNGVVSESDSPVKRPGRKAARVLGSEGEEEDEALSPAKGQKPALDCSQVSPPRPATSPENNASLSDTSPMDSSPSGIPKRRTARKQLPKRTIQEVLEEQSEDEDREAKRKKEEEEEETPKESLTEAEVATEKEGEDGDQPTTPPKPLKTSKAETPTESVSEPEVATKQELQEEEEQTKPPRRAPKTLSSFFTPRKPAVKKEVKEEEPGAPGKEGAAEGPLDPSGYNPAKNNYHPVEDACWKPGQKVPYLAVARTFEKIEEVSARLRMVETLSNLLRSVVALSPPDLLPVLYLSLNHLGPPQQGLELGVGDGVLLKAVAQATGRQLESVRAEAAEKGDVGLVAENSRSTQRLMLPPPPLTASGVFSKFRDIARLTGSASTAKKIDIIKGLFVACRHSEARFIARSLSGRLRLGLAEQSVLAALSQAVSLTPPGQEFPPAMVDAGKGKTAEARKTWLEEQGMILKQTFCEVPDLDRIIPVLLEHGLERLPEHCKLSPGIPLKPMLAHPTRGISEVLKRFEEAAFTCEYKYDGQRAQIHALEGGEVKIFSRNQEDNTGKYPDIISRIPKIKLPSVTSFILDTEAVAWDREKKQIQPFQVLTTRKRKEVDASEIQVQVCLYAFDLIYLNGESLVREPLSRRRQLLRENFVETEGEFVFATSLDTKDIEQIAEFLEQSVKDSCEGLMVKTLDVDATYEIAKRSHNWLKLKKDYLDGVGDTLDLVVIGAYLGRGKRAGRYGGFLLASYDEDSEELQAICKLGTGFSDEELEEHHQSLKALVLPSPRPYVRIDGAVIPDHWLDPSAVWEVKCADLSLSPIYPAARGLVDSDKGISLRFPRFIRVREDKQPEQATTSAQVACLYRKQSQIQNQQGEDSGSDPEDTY
# assay-method-text: Inhibition of human DNA ligase 1 at 25 uM using nicked DNA as substrate after 30 mins relative to control
Entries and their inhibition

COc1ccc(OC)c(/C=C/c2cc(=O)oc3c2ccc2c(C)cccc23)c1 :: < 50%

Ask | Consider the molecule shown here: `O=c1cc(/C=C/c2ccccc2)c2ccc3ccccc3c2o1` What is its recorded inhibition?
Reply | < 50%

Ask | Consider the molecule shown here: `COc1cc(/C=C/c2cc(=O)oc3c2ccc2ccccc23)cc(OC)c1` What is its recorded inhibition?
Reply | < 50%

Ask | Consider the molecule shown here: `COc1ccc(/C=C/c2cc(=O)oc3c2ccc2ccccc23)c(OC)c1` What is its recorded inhibition?
Reply | < 50%

Ask | Consider the molecule shown here: `COc1cc(/C=C/c2cc(=O)oc3c2ccc2c(OC)cccc23)cc(OC)c1` What is its recorded inhibition?
Reply | < 50%

Ask | Consider the molecule shown here: `COc1cc(/C=C/c2cc(=O)oc3c2ccc2c(C)cccc23)c(OC)c(OC)c1OC` What is its recorded inhibition?
Reply | < 50%

Ask | Consider the molecule shown here: `COc1ccc(OC)c(/C=C/c2cc(=O)oc3c2ccc2ccccc23)c1` What is its recorded inhibition?
Reply | < 50%

Ask | Consider the molecule shown here: `O=c1cc(/C=C/c2ccc([N+](=O)[O-])cc2)c2ccc3ccccc3c2o1` What is its recorded inhibition?
Reply | > 90%

Ask | Consider the molecule shown here: `COc1ccc(/C=C/c2cc(=O)oc3c2ccc2ccccc23)cc1OC` What is its recorded inhibition?
Reply | < 50%

Ask | Consider the molecule shown here: `Cc1cccc2c1ccc1c(/C=C/c3ccc([N+](=O)[O-])cc3)cc(=O)oc12` What is its recorded inhibition?
Reply | > 90%

Ask | Consider the molecule shown here: `COc1ccc(/C=C/c2cc(=O)oc3c2ccc2c(C)cccc23)c(OC)c1` What is its recorded inhibition?
Reply | > 90%

Ask | Consider the molecule shown here: `COc1ccccc1/C=C/c1cc(=O)oc2c1ccc1c(C)cccc12` What is its recorded inhibition?
Reply | < 50%

Ask | Consider the molecule shown here: `COc1cccc(/C=C/c2cc(=O)oc3c2ccc2ccccc23)c1` What is its recorded inhibition?
Reply | < 50%

Ask | Consider the molecule shown here: `COc1ccc(/C=C/c2cc(=O)oc3c2ccc2c(C)cccc23)cc1OC` What is its recorded inhibition?
Reply | < 50%
